Sourced from patent US10022422B2

Would you mind telling me the reported Cmax, obs of each entry?
# Experiment: Figure 6
Where a SMILES comes first, the peptide text is derived from it. Bridges are numbered along the chain shown (N, C = ends). [ ]: non-standard residue; d: D form. R8 = C=CCCCCCC[C@@](C)(N)C(=O)O; S5 = C=CCCC[C@](C)(N)C(=O)O; Nle = CCCC[C@H](N)C(=O)O; Aib = CC(C)(N)C(=O)O
Numbers only, in ng/mL.

Please review the entries below; each comes with its answer.
CCCC[C@H](NC(C)=O)C(=O)N[C@@H](CC(=O)O)C(=O)N[C@H](C(=O)N[C@@H](CC(N)=O)C(=O)N1CCC[C@H]1C(=O)N[C@H](C(=O)N[C@@H](CC(C)C)C(=O)N[C@@]1(C)CCCC=CCCC[C@@](C)(C(=O)N[C@@H](C)C(=O)N[C@@H](C)C(=O)N[C@@H](CCC(N)=O)C(N)=O)NC(=O)[C@H](CCCCN)NC(=O)[C@H](CC(C)C)NC(=O)[C@H](Cc2ccccc2)NC1=O)[C@@H](C)O)C(C)C [SP-10, Ac-NleDVNPTL$FLK$AAQ-NH2] (Ac-[Nle]DVNPTL[S5]FLK[S5]AAQ-NH2; staple 8-12) ... 11408
CCCC[C@H](NC(C)=O)C(=O)N[C@@H](CC(=O)O)C(=O)N[C@H](C(=O)N[C@@H](CC(N)=O)C(=O)NC(C)(C)C(=O)N[C@H](C(=O)N[C@@H](CC(C)C)C(=O)N[C@@H](CC(C)C)C(=O)N[C@@H](Cc1ccccc1)C(=O)N[C@@]1(C)CCCC=CCCC[C@@](C)(C(=O)N[C@@H](CCCNC(=N)N)C(N)=O)NC(=O)[C@H](C)NC(=O)[C@H](C(C)C)NC(=O)[C@H](CCCCN)NC1=O)[C@@H](C)O)C(C)C [SP-6, Ac-NleDVNAibTLLF$KVA$R-NH2] (Ac-[Nle]DVN[Aib]TLLF[S5]KVA[S5]R-NH2; staple 10-14) ... 12564
CCCC[C@H](NC(C)=O)C(=O)N[C@@H](CC(=O)O)C(=O)N[C@H](C(=O)N[C@@H](CC(N)=O)C(=O)NC(C)(C)C(=O)N[C@H](C(=O)N[C@@H](CC(C)C)C(=O)N[C@@]1(C)CCCC=CCCC[C@@](C)(C(=O)N[C@@H](C)C(=O)N[C@@H](C)C(=O)N[C@@H](CCC(N)=O)C(N)=O)NC(=O)[C@H](CCCCN)NC(=O)[C@H](CC(C)C)NC(=O)[C@H](Cc2ccccc2)NC1=O)[C@@H](C)O)C(C)C [SP-9, Ac-NleDVNAibTL$FLK$AAQ-NH2] (Ac-[Nle]DVN[Aib]TL[S5]FLK[S5]AAQ-NH2; staple 8-12) ... 9766

Dear reader, for each entry below, please note its Cmax, obs.
1. CCCC[C@H](NC(C)=O)C(=O)N[C@@H](CC(=O)O)C(=O)N[C@H](C(=O)N[C@@H](CC(N)=O)C(=O)N1CCC[C@H]1C(=O)N[C@H](C(=O)N[C@@H](CC(C)C)C(=O)N[C@@H](CC(C)C)C(=O)N[C@@H](Cc1ccccc1)C(=O)N[C@@H](CC(C)C)C(=O)N[C@@H](CCCCN)C(=O)N[C@H](C(=O)N1CCC[C@H]1C(=O)N[C@@H](C)C(=O)N[C@@H](CCC(N)=O)C(N)=O)C(C)C)[C@@H](C)O)C(C)C
2. CCCC[C@H](NC(C)=O)C(=O)N[C@@H](CC(=O)O)C(=O)N[C@H](C(=O)N[C@@H](CC(N)=O)C(=O)NC(C)(C)C(=O)N[C@H](C(=O)N[C@@H](CC(C)C)C(=O)N[C@@H](CC(C)C)C(=O)N[C@@H](Cc1ccccc1)C(=O)N[C@@H](CC(C)C)C(=O)N[C@@H](CCCCN)C(=O)N[C@H](C(=O)NC(C)(C)C(=O)N[C@@H](C)C(=O)N[C@@H](CCC(N)=O)C(N)=O)C(C)C)[C@@H](C)O)C(C)C [SP-2, Ac-NleDVNAibTLLFLKVAibAQ-NH2] (Ac-[Nle]DVN[Aib]TLLFLKV[Aib]AQ-NH2)
3. CCCC[C@H](NC(C)=O)C(=O)N[C@@H](CC(=O)O)C(=O)N[C@H](C(=O)N[C@@H](CC(N)=O)C(=O)NC(C)(C)C(=O)N[C@H](C(=O)N[C@]1(C)CCCCCCC=CCCC[C@@](C)(C(=O)N[C@@H](CCCNC(=N)N)C(N)=O)NC(=O)[C@H](C)NC(=O)[C@H](C(C)C)NC(=O)[C@H](CCCCN)NC(=O)[C@H](CC(C)C)NC(=O)[C@H](Cc2ccccc2)NC(=O)[C@H](CC(C)C)NC1=O)[C@@H](C)O)C(C)C [SP-15, Ac-NlcDVNAibT$r8LFLKVA$R-NH2] (Ac-[Nle]DVN[Aib]T[R8]LFLKVA[S5]R-NH2; staple 7-14)
4. CCCC[C@H](NC(C)=O)C(=O)N[C@@H](CC(=O)O)C(=O)N[C@H](C(=O)N[C@@H](CC(N)=O)C(=O)N1CCC[C@H]1C(=O)N[C@H](C(=O)N[C@@H](CC(C)C)C(=O)N[C@@H](CC(C)C)C(=O)N[C@@H](Cc1ccccc1)C(=O)N[C@@]1(C)CCCC=CCCC[C@@](C)(C(=O)N[C@@H](CCCNC(=N)N)C(N)=O)NC(=O)[C@H](C)NC(=O)[C@H](C(C)C)NC(=O)[C@H](CCCCN)NC1=O)[C@@H](C)O)C(C)C [SP-11, Ac-NleDVNPTLLF$KVA$R-NH2] (Ac-[Nle]DVNPTLLF[S5]KVA[S5]R-NH2; staple 10-14)

-- reply
[7742, 8145, 26524, 18748]
